# experimentalSystem: AMP-activated protein kinase, AMPK (Homo sapiens) (UniProt P54646+O43741+P54619+Q9UGJ0+Q9Y478+Q13131+Q9UGI9)
# experimentalProtocol: AMP-dependent Kinase enzyme assay. An in vitro enzyme assay that detects ADP turnover that is directly proportional to AMPK activity. This uses naive AMPK that is activated during the assay with MK-8722
# Format: functional
# Parameters: scale not given: direction of the effect not stated beside the values
# conditionSummary: 30 µM

molecule: O=C(CCC1CCCO1)NS(=O)(=O)c1ccc(Cl)cc1 (stereo not drawn)
Percent Effect (%): -10.2

molecule: O=C(Nc1nccs1)N(CCO)Cc1ccsc1
Percent Effect (%): -2.9

molecule: O=C(NCCCO)C1CC(=O)N(c2n[nH]c3cccc(F)c23)C1 (stereo not drawn)
Percent Effect (%): -5.17
